Values were extracted from patent US9464076B2.

Molecular target: PDE10A (Homo sapiens (Human))
Sequence (Q9Y233 whole entry): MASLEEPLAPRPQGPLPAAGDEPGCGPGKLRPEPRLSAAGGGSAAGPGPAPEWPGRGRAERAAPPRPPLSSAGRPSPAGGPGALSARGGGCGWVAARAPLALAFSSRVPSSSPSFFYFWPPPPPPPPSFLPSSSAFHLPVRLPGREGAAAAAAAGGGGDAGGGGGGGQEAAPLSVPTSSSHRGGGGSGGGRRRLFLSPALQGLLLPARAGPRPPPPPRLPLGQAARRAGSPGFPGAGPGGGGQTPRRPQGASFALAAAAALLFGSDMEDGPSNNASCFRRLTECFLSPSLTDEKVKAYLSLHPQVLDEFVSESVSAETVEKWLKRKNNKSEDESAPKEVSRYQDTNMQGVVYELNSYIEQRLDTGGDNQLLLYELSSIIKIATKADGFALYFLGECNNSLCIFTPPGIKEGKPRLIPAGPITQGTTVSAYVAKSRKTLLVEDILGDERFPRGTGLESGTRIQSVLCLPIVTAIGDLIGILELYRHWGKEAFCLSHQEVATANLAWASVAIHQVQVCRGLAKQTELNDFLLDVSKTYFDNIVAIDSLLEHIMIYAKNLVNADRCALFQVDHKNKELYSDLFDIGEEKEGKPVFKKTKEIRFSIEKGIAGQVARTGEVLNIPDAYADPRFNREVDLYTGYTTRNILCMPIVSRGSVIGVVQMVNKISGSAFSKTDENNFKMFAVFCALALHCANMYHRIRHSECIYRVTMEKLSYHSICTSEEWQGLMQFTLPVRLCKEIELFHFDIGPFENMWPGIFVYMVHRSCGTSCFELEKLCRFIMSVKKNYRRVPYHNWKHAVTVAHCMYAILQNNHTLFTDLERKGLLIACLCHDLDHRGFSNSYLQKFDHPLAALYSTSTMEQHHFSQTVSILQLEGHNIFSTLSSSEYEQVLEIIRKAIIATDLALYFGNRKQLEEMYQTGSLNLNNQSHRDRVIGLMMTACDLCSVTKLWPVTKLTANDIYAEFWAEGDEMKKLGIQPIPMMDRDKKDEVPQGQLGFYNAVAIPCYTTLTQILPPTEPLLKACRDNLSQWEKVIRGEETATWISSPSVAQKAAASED
Experiment: Measurement of PDE10A inhibitory activity-2 (PDE10A fraction prepared from MOLT-4 cells)
Format: biochemical
Conditions: PDE10A fraction from MOLT-4 cells (peak around 250 mM NaCl)
Method: A human acute lymphoblastic lymphoma T cell line MOLT-4 (which can be purchased under ATCC No. CRL-1582 from ATCC) was cultured in an RPMI1640 medium containing 10% fetal bovine serum to obtain 5×10^8 MOLT-4 cells. The cells were recovered by centrifugation and suspended in 10 ml of buffer solution A (25 mM Tris-HCl, 5 mM 2-mercaptoethanol, 2 mM benzamidine, 2 mM EDTA, and 0.1 mM 4-(2-aminoethyl)benzenesulfonyl hydrochloride, pH 7.5). […]
pIC50: −log10 of the molar value. Structures can show the parent of a compound that is named as a salt.
Measured attribute: pIC50

• COCc1ccc(C(C)=O)c2sc(C(=O)Nc3ccc4c(C(C)(C)O)cccc4n3)c(C)c12 [Example 74] = 8.52
• Cc1c(C(=O)Nc2cc(C(C)(C)O)c3ccccc3n2)sc2c(C(=O)C3CCC3)cccc12 [Example 21] = 9.17
• COCc1ccc(C(C)=O)c2sc(C(=O)Nc3cc(CN4CC[C@@H](O)C4)c4ccccc4n3)c(C)c12 [Example 39] = 9.46
• CC(=O)c1ccc(C(C)=O)c2sc(C(=O)Nc3cc(C(C)(C)O)c4ccccc4n3)cc12 [Example 8] = 7.92
• COCc1ccc(C(C)=O)c2sc(C(=O)Nc3ccc4c(COC(C)=O)cccc4n3)c(C)c12 [Example 83] = 9.07
• COCc1ccc(C(C)=O)c2sc(C(=O)Nc3ccc4c(CN5CC(O)C5)cccc4n3)c(C)c12 [Example 65, dihydrochloride] = 9.41
• COc1cc(NC(=O)c2sc3c(C(C)=O)ccc(C(C)=O)c3c2C)nc2ccccc12 [Example 12] = 8.36
• COCc1ccc(C(C)=O)c2sc(C(=O)Nc3ccc4c(CN5CC(OC)C5)cccc4n3)c(C)c12 [Example 66] = 8.92
• Cc1c(C(=O)Nc2cc(C(C)(C)O)c3ccccc3n2)sc2c(C(=O)CC(C)C)cccc12 [Example 23] = 8.00
• COCc1ccc(C(C)=O)c2sc(C(=O)Nc3cc(CN4CCCC4)c4ccccc4n3)c(C)c12 [Example 43] = 8.21
• COCc1ccc(C(=O)C(C)C)c2sc(C(=O)Nc3cc(CN4CC[C@@H](O)C4)c4ccccc4n3)c(C)c12 [Example 59, dihydrochloride] = 9.51
• Cc1c(C(=O)Nc2cc(C(C)(C)O)c3ccccc3n2)sc2c(C(=O)C3CCCC3)cccc12 [Example 25] = 8.40
• CC(=O)c1ccc(C(C)=O)c2c(C)c(C(=O)Nc3cc(CN4CCC(O)C4)c4ccccc4n3)sc12 (stereo not shown) [Example 51] = 8.82
